// data source = the supplement of paper PMC10065799

- target.or.test.system: FGFR3 (UniProt P22607)
- Sequence (P22607 whole entry, looked up): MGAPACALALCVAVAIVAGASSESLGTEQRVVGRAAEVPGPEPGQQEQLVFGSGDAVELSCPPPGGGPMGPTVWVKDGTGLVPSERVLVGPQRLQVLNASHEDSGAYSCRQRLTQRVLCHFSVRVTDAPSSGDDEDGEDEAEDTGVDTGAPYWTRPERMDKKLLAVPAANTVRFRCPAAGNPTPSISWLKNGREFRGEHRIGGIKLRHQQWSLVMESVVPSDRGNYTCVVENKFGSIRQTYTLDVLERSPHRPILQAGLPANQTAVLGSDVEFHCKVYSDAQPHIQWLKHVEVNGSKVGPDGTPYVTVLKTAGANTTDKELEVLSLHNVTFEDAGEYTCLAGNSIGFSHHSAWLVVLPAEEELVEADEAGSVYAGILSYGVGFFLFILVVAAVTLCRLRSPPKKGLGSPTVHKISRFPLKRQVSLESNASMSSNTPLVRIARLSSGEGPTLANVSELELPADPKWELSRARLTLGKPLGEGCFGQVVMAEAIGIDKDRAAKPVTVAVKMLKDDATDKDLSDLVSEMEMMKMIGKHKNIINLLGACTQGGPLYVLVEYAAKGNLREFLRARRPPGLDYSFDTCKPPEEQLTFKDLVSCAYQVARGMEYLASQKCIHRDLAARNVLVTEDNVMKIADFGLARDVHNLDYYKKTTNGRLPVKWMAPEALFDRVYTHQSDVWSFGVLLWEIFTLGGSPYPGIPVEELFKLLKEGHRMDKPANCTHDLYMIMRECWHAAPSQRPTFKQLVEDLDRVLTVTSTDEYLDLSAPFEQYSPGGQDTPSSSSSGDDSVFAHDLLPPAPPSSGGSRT
- protocol.details: phosphorylation enrichment, bacterial display (enrichment ratio); higher = better substrate or ligand; peptides without Tyr show the background
Think of 0.6 as a floor: if phosphorylation enrichment stands on it or above, it is true; beneath it, false.

Field: example entries. Status: answers known.
Exam item: Quick check: does KKHIPYREHKS [CSNK1G1_Y205] have phosphorylation enrichment greater than or equal to 0.6?
Marked response: true

Exam item: Does NAPNSYGRRLI [CDKN2A_Y44_P48L] have a reported phosphorylation enrichment of at least 0.6?
Marked response: false

Next:
Exam item: Would you say NNRVFYGNSDR [RS1_Y177] shows phosphorylation enrichment at minimum 0.6?
Marked response: false

Exam item: Check if phosphorylation enrichment >= 0.6 (inclusive). Item: ADRNHYRRFPR [YBX1_Y145_YF]
Marked response: false

Exam item: Hi team, for KGSEGYLAATY [NF1_Y2503] , is the recorded phosphorylation enrichment at or above 0.6?
Marked response: false

Exam item: Please tell me: is the sequence IGEGTSGVVFK [CDK2_Y15_Y15S_YF] at or over 0.6 in terms of phosphorylation enrichment?
Marked response: false

Exam item: Given the entry MIRSAYALGGL [CPS1_Y590] , answer whether its phosphorylation enrichment meets or surpasses 0.6.
Marked response: false

Exam item: Does the reported phosphorylation enrichment for RAIGYYSATSK [FAM120A_Y328] fall at or above the 0.6 mark?
Marked response: false

Exam item: phosphorylation enrichment >= 0.6 for RPIEVYLCPEE [E2F3_Y349_G344R] ?
Marked response: true

Exam item: Say whether LPVHFYGHVEH [PYGM_Y204] shows phosphorylation enrichment of 0.6 or more.
Marked response: true

Exam item: I'd appreciate it if you could say whether ERFSYYGMKAV [SLC15A2_Y61] has phosphorylation enrichment at least equal to 0.6.
Marked response: true

Exam item: Kindly determine if phosphorylation enrichment recorded for QEKKGYFEDRR [GLUL_Y336] is above or exactly 0.6.
Marked response: true

Exam item: Could you verify whether the entry RQQEDYLLYKQ [RARRES1_Y159] shows phosphorylation enrichment of no less than 0.6?
Marked response: true

Exam item: Is the recorded value of phosphorylation enrichment equal to or greater than 0.6 for this sequence? FQGRRYDCDCD [CRYGS_Y21]
Marked response: false

----------
- target.or.test.system: EPHB1 (UniProt P54762)
- Sequence (P54762 whole entry, looked up): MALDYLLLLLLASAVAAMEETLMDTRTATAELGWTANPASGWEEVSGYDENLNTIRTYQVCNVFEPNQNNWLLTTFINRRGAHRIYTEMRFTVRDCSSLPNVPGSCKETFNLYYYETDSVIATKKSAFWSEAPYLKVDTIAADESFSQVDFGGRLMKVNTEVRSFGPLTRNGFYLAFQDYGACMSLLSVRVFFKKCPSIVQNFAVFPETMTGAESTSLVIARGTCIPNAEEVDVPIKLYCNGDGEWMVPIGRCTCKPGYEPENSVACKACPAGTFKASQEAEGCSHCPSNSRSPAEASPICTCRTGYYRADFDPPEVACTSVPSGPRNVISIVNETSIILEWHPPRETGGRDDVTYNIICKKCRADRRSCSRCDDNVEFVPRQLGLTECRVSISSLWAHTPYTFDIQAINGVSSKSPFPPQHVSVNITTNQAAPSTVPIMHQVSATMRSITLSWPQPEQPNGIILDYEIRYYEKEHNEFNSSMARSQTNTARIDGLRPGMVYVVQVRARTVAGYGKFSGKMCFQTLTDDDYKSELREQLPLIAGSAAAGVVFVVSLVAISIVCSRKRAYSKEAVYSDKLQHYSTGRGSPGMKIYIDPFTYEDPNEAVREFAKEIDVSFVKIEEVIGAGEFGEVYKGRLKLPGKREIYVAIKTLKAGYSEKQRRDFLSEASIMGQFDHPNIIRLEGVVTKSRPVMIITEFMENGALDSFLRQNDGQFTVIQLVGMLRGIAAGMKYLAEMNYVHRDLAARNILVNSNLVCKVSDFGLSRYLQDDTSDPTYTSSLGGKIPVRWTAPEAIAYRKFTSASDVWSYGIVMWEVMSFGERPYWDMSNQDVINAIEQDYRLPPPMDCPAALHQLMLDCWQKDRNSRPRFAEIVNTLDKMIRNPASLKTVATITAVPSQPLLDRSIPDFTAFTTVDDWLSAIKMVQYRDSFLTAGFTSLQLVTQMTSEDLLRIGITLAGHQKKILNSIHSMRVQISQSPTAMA
- protocol.details: phosphorylation enrichment, bacterial display (enrichment ratio); higher = better substrate or ligand; peptides without Tyr show the background
Here, each record is paired with measured phosphorylation enrichment data.
A bare number is all that is needed in reply.

Exam item: API: value(readout= phosphorylation enrichment, system= EPHB1 (UniProt P54762), query= LKDEDYLKDIV [HAUS3_Y582] )
Marked response: 0.861

Exam item: Form: Entry = SVTCTYSPALH [TP53_Y126_N131H] | System = EPHB1 (UniProt P54762) | phosphorylation enrichment = ____
Marked response: 0.71

Exam item: Query for EPHB1 (UniProt P54762): what phosphorylation enrichment does the record show for QEIATYRRLPE [KRT16_Y417_L421P] ?
Marked response: 0.77

Exam item: EPHB1 (UniProt P54762) / phosphorylation enrichment / LRSKQYLRNPP [SHC1_Y315_F312S] : value?
Marked response: 0.426

Exam item: Which phosphorylation enrichment is reported with EPHB1 (UniProt P54762) for this entry: KLVDVYVNDAF [PGK1_Y161_G158V] ?
Marked response: 0.575

---
Exam item: Hello, I am looking for reported phosphorylation enrichment with EPHB1 (UniProt P54762) for IEPGIYIPEDD [XPNPEP3_Y455] . Could you help?
Marked response: 0.598

Exam item: Request: phosphorylation enrichment, test system EPHB1 (UniProt P54762), entry YDDGKYVYVVT [RPS6KA3_Y488]
Marked response: 0.724

----------
The following sequences are listed with their measured phosphorylation enrichment values.
- Test system: Fer (mouse)
- protocol.details: phosphorylation enrichment, bacterial display (enrichment ratio); higher = better substrate or ligand; peptides without Tyr show the background
In your answer, state the number alone without any accompanying words.

Exam item: What value of phosphorylation enrichment has been reported for the following sequence? ASGKFYAMKIL [AKT3_Y174_YF]
Marked response: 0.543

Exam item: Given the sequence GEDDVYDSVPG [FGR_opt_2018] , what is its reported phosphorylation enrichment?
Marked response: 0.861

Exam item: Suppose we examine the sequence RARPPYTVAAD [ANKZF1_Y572] ; what phosphorylation enrichment value has been reported?
Marked response: 0.443

Exam item: Give its phosphorylation enrichment value. Item: DFLEKYFKFGC [NNMT_Y24_S29C_YF]
Marked response: 0.554

***
Exam item: Which phosphorylation enrichment reading was recorded for the sequence KIVFVYVKKRS [DNAI2_Y7_E2K_YF] ?
Marked response: 0.478

Exam item: Could you tell me which phosphorylation enrichment is on file for FSQQTYYPVSN [ABCD1_Y180_R182P] ?
Marked response: 0.983

Exam item: Name the recorded phosphorylation enrichment for APVEDYGGGGG [B4GALT6_Y382_I379V] .
Marked response: 0.409

----------
- target.or.test.system: EPHB2 (UniProt P29323)
- Sequence (P29323 whole entry, looked up): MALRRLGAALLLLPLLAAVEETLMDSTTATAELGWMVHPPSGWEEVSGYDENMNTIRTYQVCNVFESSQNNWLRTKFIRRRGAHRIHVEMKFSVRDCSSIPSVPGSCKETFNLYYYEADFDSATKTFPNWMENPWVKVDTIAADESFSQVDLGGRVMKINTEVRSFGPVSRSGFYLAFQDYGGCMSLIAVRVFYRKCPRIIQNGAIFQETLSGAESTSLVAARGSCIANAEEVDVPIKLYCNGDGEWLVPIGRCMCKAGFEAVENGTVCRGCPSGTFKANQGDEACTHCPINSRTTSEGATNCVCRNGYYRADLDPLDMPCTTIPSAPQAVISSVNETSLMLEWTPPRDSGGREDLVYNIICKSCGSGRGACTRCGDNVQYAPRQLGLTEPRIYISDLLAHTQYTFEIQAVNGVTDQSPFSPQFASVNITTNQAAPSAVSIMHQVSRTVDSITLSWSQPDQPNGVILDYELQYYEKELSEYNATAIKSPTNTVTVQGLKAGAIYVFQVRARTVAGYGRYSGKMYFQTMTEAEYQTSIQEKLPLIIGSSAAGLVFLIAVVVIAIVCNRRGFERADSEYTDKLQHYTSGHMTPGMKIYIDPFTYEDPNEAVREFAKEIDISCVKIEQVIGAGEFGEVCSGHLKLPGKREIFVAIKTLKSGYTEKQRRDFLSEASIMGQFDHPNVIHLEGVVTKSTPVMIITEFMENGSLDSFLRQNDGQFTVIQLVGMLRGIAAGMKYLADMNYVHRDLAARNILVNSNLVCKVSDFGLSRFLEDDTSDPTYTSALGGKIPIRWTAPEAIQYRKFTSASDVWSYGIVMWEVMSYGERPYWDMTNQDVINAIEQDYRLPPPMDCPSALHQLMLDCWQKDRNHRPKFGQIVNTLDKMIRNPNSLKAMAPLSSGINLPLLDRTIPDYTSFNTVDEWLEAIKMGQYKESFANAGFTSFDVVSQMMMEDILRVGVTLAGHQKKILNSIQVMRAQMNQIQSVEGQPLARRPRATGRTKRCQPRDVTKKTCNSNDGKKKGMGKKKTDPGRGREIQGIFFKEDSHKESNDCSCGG
- protocol.details: phosphorylation enrichment, bacterial display (enrichment ratio); higher = better substrate or ligand; peptides without Tyr show the background
Recorded phosphorylation enrichment for the following sequences
Keep the answer to the number alone.

Worked set:
Exam item: Form: Entry = IQSAKYDMAED [TTC21B_Y1213] | System = EPHB2 (UniProt P29323) | phosphorylation enrichment = ____
Marked response: 0.724

Exam item: // fetch EPHB2 (UniProt P29323) phosphorylation enrichment for TLKDVCDDGKY [RPS6KA3_Y483_Y483C]
Marked response: 0.624

Exam item: GET /values?readout=phosphorylation enrichment&system=EPHB2 (UniProt P29323)&item= NDTAGYFIIGG [SEL1L3_Y399]
Marked response: 0.523

Next:
Exam item: # value lookup — system EPHB2 (UniProt P29323), readout phosphorylation enrichment, item LPVHFYGHVEH [PYGM_Y204]
Marked response: 0.889

Exam item: What is its phosphorylation enrichment for EPHB2 (UniProt P29323)? Entry: SARFRYLLAEK [LDHB_Y173_M175L]
Marked response: 0.477

Exam item: Query for EPHB2 (UniProt P29323): what phosphorylation enrichment does the record show for ESMNTYLQTSP [NAT1_Y208] ?
Marked response: 0.511

Exam item: So what phosphorylation enrichment did QMIETYFDFRV [NSMF_Y506_L511V] get with EPHB2 (UniProt P29323)?
Marked response: 1.46

----------
- target.or.test.system: EPHB2 (UniProt P29323)
- protocol.details: phosphorylation enrichment, bacterial display (enrichment ratio); higher = better substrate or ligand; peptides without Tyr show the background
The entries below come with measured phosphorylation enrichment values attached.
Form field (numeric): enter value without unit.

Exam item: Return reported phosphorylation enrichment; argument: VFSTDYFRVGG [NTRK2_Y706_YF]
Marked response: 0.709

Exam item: What value of phosphorylation enrichment has been recorded for this entry: HNVPIYEGFGL [ACTA1_Y168_A172G_YF]
Marked response: 27.6

Exam item: What value of measured phosphorylation enrichment is listed for MCITRYERESQ [PRNP_Y218_Q217R] ?
Marked response: 0.528

Exam item: What measured phosphorylation enrichment goes with LNERHYGGLTG [PGAM2_Y92] ?
Marked response: 0.432

Exam item: Fill blank: measured phosphorylation enrichment of the sequence MKSIKYMDKEI [CCDC60_Y41] is ____.
Marked response: 0.392

Exam item: Look up phosphorylation enrichment for this sequence: NNTFLYQLVFD [EXO1_Y284]
Marked response: 4.11

Please find the next sequence below.
Exam item: Bench note: what phosphorylation enrichment did RLSVDYSKKSK [TUBA3E_Y161] show?
Marked response: 0.389

----------
- target.or.test.system: Grb2 SH2 (UniProt P62993)
- Sequence (P62993 whole entry, looked up): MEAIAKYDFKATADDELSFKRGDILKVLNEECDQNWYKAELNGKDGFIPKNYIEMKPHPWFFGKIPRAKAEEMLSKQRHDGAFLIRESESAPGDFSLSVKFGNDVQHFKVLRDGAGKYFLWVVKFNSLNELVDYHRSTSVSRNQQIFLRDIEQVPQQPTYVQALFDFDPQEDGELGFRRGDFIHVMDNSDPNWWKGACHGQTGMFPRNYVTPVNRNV
- protocol.details: SH2 binding enrichment of the phosphorylated peptide, bacterial display (enrichment ratio); higher = better substrate or ligand; peptides without Tyr show the background
Consider the reported SH2 binding enrichment of an entry and match it to a band in bottom (below 0.9), middle (0.9 to below 1), top (1 or more)

Consider the worked cases shown below.
Exam item: Given LTKQEYDEAGP [ACTA1_Y364_I359L] , name the class its SH2 binding enrichment places it in.
Marked response: top

Exam item: Field: class (SH2 binding enrichment) — entry: KAIMIYVSSFF [ACTN4_Y260_T259I_YF]
Marked response: middle

Exam item: Record TIQRMYGCDVG [HLA-A_Y123_I121R] — which class?
Marked response: bottom

Exam item: Hi there! Could you help me figure out the category for LTSVKYLLSAT [GSDMC_Y26_P23S] please?
Marked response: top

Exam item: Record EAKENYGKTLK [CHL1_Y291_T287A] — which class?
Marked response: bottom

New cases:
Exam item: Which category does the recorded SH2 binding enrichment put RLLVVYPWTKR [HBB_Y36_Q40K] in?
Marked response: middle

Exam item: Hey, which category is FENGEYIVRQG [PRKG1_Y247_I249V_YF] in, do you know?
Marked response: top
